IC50 (nM), P3X63 cytotoxicity assay, MOI 4 listing for selected binders.
# subject_of_test: PcrV of P. aeruginosa strain PA103 (on TTSS-induced bacteria) (Pseudomonas aeruginosa strain PA103)
# test_description: cell-based or functional assay
property_measured: IC50 (nM), P3X63 cytotoxicity assay, MOI 4

| binder | result_value |
| --- | --- |
| Nanobody 4G10 (VHH) VHH: EVQLVESGGGLVQAGGSLRLSCVISEDGVRNYDMGWFRQAPGKEREFVATINWSGGSTNYADSVKGRFTVSRDNAKNTMYLQMDSLKPEDTAVYYCVAAGFYNNYLRTAPNDWNDWGQGTQVTVSS | 105 |
| Nanobody 2B02 (VHH) VHH: EVQLVESGGGLVQPGDSLRLSCAASGRILSINNMVWYRQAPGKQRELVAHITSSGSTGYADSVKGRFTISRDNAKNTFYLQMTNLNPEDTAVYYCNCWVSSDSNAPLKNYWGQGTQVTVSS | 1730 |
| Nanobody 1E11 (VHH, also called 01E11) VHH: EVQLVESGGGLVQPGGSLRLSCAASGSTRSVNPMAWFRQAPGRQREWVATISRSGYATYADSVKGRFTISGDNAKSSVYLQMNSLKPEDTAVYYCVTGTYWGQGTLVTVSS | 23 |
| Fab 13.37 (Fab, V domains shown) VH: QVQLVESGGGVVQPGRSLRLSCAASGFTFSSYPLHWVRQAPGKGLEWVSFISYDGSEKYYASSVKGRFTISRDNSENTLYLQMNSLRPEDTAVYYCARNRGDIYYDFTYAMDIWGQGTMVTVSS VL: DIQMTQSPSSLSASVGDRVTITCRASQSISRWVAWYQQRPGKAPNLLIYDASSLKSGVPSRFSGSGSGTEFTLTISSLQPEDIATYYCQQFWGTPYTFGQGTKLEIKR | 8 |
